# ASSAY PROTOCOL: qHTS of pediatric cancer cell lines to identify multiple opportunities for drug repurposing: Primary screen for RD cells (AID 1347104); also: nearly all actives have a fitted effect of over 55% in size
# CONDITION INFO: RD rhabdomyosarcoma viability, CellTiter-Glo luminescence, 48 h; series mostly up to 46 µM
Inconclusive results are not listed. Active and inactive are the calls of the source. Calls follow the shape of the dose curve; as a rule, active = well fitted cell-killing curve with a large enough effect; inconclusive = small, poorly fitted or top-dose-only effect; inactive = flat fitted curve, though single readings scatter.
Classes used: 1 for active, 0 for inactive

| COMPOUND | QUALITATIVE LABEL |
| --- | --- |
| CNCC(=O)c1ccc(O)c(O)c1 | 0 |
| C[C@@H](N)[C@@H](O)c1ccccc1 | 0 |
| c1ccc2c(c1)sc1ccccc12 | 0 |
| CCC1(c2ccc(N)cc2)CCC(=O)NC1=O (stereo not drawn) | 0 |
| COP(=S)(OC)Oc1cc(Cl)c(Cl)cc1Cl | 0 |
| Clc1cccc(SC2CCNCC2)n1 | 0 |
| C[C@]12CC[C@@H]3c4ccc(OC(=O)N(CCCl)CCCl)cc4CC[C@H]3[C@@H]1CC[C@@H]2OP(=O)(O)O | 0 |
| CC(=O)C1CCOC1=O (stereo not drawn) | 0 |
| COc1cccc([C@@]2(O)CCCC[C@@H]2CN(C)C)c1 | 0 |
| C[C@]12CCC(=O)C=C1CC[C@@H]1[C@@H]2CC[C@@]2(C)[C@H]1CC[C@]2(C)O | 0 |
| C#C[C@]1(O)CC[C@H]2[C@@H]3CCC4=CC(=O)CC[C@]4(C)[C@H]3CC[C@@]21C | 0 |
| CC(C)=CC1C(C(=O)OCN2C(=O)C3=C(CCCC3)C2=O)C1(C)C (stereo not drawn) | 0 |
| NC(=O)c1cc([N+](=O)[O-])cc([N+](=O)[O-])c1 | 0 |
| C[C@]12CC[C@H]3[C@@H](CC[C@@]45O[C@H]4C(O)=C(C#N)C[C@]35C)[C@H]1CC[C@H]2O | 1 |
| CC(Cc1ccccc1)N(C)Cc1ccco1 (stereo not drawn) | 0 |
| Nc1nc(N)nc(NC2CC2)n1 | 0 |
| ClCCN1CCCC1 | 0 |
| [N-]=[N+]=CC(=O)OC[C@H](N)C(=O)O | 0 |
| CN1C(=O)CCS(=O)(=O)C1c1ccc(Cl)cc1 (stereo not drawn) | 0 |
| COC1CC(=C(c2cccs2)c2cccs2)C[N+](C)(C)C1 (stereo not drawn) | 0 |
| COc1ccc2c(c1OC)C(=O)O[C@H]2[C@@H]1c2cc3c(cc2CCN1C)OCO3 | 0 |
| CCC(CC)(CNC(=O)CCCO)c1cccc(OC)c1 | 0 |
| CN1CCC(O)(c2ccc(F)cc2)C(C(=O)c2ccc(F)cc2)C1 (stereo not drawn) | 0 |
| C[C@@H]1CC2=CC(=O)CC[C@@H]2[C@H]2CC[C@@]3(C)[C@@H](CC[C@]3(C)O)[C@@H]21 | 0 |
| COc1cccc2c1C(=O)c1c(O)c3c(c(O)c1C2=O)C[C@@](O)(C(=O)CO)CC3OC1CC(N2CCOC(OC)C2)C(O)C(C)O1 (stereo partly drawn) | 1 |
| CN1C(=O)COc2c(C(=O)NC3CN4CCC3CC4)cc(Cl)cc21 (stereo not drawn) | 0 |
| C[C@]12Cc3cn[nH]c3C[C@@H]1CC[C@@H]1[C@@H]2CC[C@@]2(C)[C@H]1CC[C@]2(C)O | 0 |
| O=P1(N(CCCl)CCCl)NCCCO1 (stereo not drawn) | 0 |
| C[C@]12CC[C@@H]3c4ccc(OC(=O)N(CCCl)CCCl)cc4CC[C@H]3[C@@H]1CC[C@@H]2O | 0 |
| CC(C)NC(C)C | 0 |
| CCN[C@@H](C)Cc1cccc(C(F)(F)F)c1 | 0 |
| c1ccc(N2CCNCC2)cc1 | 0 |
| COC(=O)C(Cl)C(=O)OC | 0 |
| O=C(O)CCCc1ccc(N(CCCl)CCCl)cc1 | 0 |
| Cc1ncsc1CCCl | 0 |
| O=C1c2ccccc2C(=O)C1C(=O)C(c1ccccc1)c1ccccc1 | 0 |
| O=C1CN=C(c2ccccc2)c2cc([N+](=O)[O-])ccc2N1 | 0 |
| CCC(C)C(C)(COC(N)=O)COC(N)=O (stereo not drawn) | 0 |
| COc1c2c(cc3c1OCO3)CCN(C)C2 | 0 |
| CC(C)c1cccc(C(C)C)c1O | 0 |
| Clc1ccc(C(c2ccc(Cl)cc2)C(Cl)(Cl)Cl)cc1 | 0 |
| CCN[C@@H](C)Cc1ccccc1 | 0 |
| CC(=O)NC1CCSC1=O (stereo not drawn) | 0 |
| COc1cc(OC)c(OC)cc1C=O | 0 |
| CN(C)CCc1c[nH]c2cccc(OP(=O)(O)O)c12 | 0 |
| CC[N+]1(CC)CCC(OC(=O)C(O)(c2ccccc2)c2ccccc2)C1 (stereo not drawn) | 0 |
| Nc1ccc([As](=O)(O)O)cc1 | 0 |
| CCCN(CCC)C(=O)Cc1c(-c2ccc(Cl)cc2)nc2ccc(Cl)cn12 | 0 |

---

# ASSAY PROTOCOL: qHTS for Inhibitors of the Functional Ribonucleoprotein Complex (vRNP) of Lymphocytic Choriomeningitis Arenaviruses (LCMV): Viability assay - alamar blue signal for LCMV Primary Screen (AID 1347085); also: nearly all actives have a fitted effect of over 80% in size
# CONDITION INFO: alamar blue viability counter-screen, LCMV vRNP screen cells; series mostly up to 57.5 µM
Records with an inconclusive call do not appear. Active and inactive are the calls of the source. Calls follow the shape of the full dose curve; tested in HEK293 reporter line.
Classes used: 1 = active, 0 = inactive

| COMPOUND | QUALITATIVE LABEL |
| --- | --- |
| O=C1CCCc2c(O)cccc21 | 0 |
| Cc1cccc(C(=O)O)c1O | 0 |
| CCCc1c2oc(C(=O)O)cc(=O)c2cc2c(=O)cc(C(=O)O)n(CC)c12 | 0 |
| O=C(Oc1ccccc1)c1ccccc1O | 0 |
| CO[C@@]1(NC(=O)CSCC#N)C(=O)N2C(C(=O)O)=C(CSc3nnnn3C)CS[C@@H]21 | 0 |
| CN1C(CSCC(F)(F)F)Nc2cc(Cl)c(S(N)(=O)=O)cc2S1(=O)=O (stereo unspecified) | 0 |
| COc1cc(C(=O)NC2CCCNC2)cc(OC)c1OC (stereo unspecified) | 0 |
| CCOc1ccccc1OCC1CNCCO1 (stereo unspecified) | 0 |
| O=C(O)c1ccc(S(=O)(=O)N(Cl)Cl)cc1 | 0 |
| Cc1ccc(-c2ncc(Cl)cc2-c2ccc(S(C)(=O)=O)cc2)cn1 | 0 |
| NC/C=C/C(=O)O | 0 |
| COC(=O)c1cc(Cl)ccc1OC | 0 |
| COc1cccc2c1C(=O)c1c(O)c3c(c(O)c1C2=O)C[C@@](O)(C(C)=O)C[C@H]3O[C@H]1C[C@H](N)[C@H](O)[C@H](C)O1 | 1 |
| Cn1c(=O)c2c(ncn2CCO)n(C)c1=O | 0 |
| Cc1nnc(NS(=O)(=O)c2ccc(N)cc2)s1 | 0 |
| CN1CCN(N)CC1 | 0 |
| Cc1ccc(C(C)C)c(O)c1 | 0 |
| CCC1(c2ccc(N)cc2)CCC(=O)NC1=O (stereo unspecified) | 0 |
| CC1(C)Oc2ccc(C#N)cc2[C@@H](N2CCCC2=O)[C@@H]1O | 0 |
| Nc1ccn(C[C@@H](CO)OCP(=O)(O)O)c(=O)n1 | 0 |
| Cc1cc(C)nc(NS(=O)(=O)c2ccc(N)cc2)n1 | 0 |
| Cc1ccccc1OCC(O)CO (stereo unspecified) | 0 |
| CCOC(=O)[C@H](CCc1ccccc1)N[C@@H](C)C(=O)N1[C@H](C(=O)O)C[C@H]2CCCC[C@@H]21 | 0 |
| Cc1onc(-c2ccccc2)c1-c1ccc(S(N)(=O)=O)cc1 | 0 |
| C[C@H]1C[C@H](O)c2ccsc2S1(=O)=O | 0 |
| CCN(CCO)CCn1c(Cc2ccccc2)nc2c1c(=O)n(C)c(=O)n2C | 0 |

---

# ASSAY PROTOCOL: High-throughput drug toxicity screening in the BPDCN cell line Cal-1 (AID 1224825);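 also: cells exposed to compounds for 48 h; 100% = DMSO and 0% = bortezomib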
# CONDITION INFO: Cal-1 BPDCN cell viability, qHTS; at 45.8 µM (top of the series) unless noted
Reported viability (% of control) by item:
TEST READOUT: viability (% of control) (%)

| MOLECULE | OBSERVED VALUE |
| --- | --- |
| CN1C(=O)CCS(=O)(=O)C1c1ccc(Cl)cc1 (stereo unspecified) | 112 |
| COc1cc(OC)c(OC)cc1C=O | 98.8 |
| CCC1(c2ccc(N)cc2)CCC(=O)NC1=O (stereo unspecified) | 111 |
| O=P1(N(CCCl)CCCl)NCCCO1 (stereo unspecified) | 104 |
| CN1C(=O)COc2c(C(=O)NC3CN4CCC3CC4)cc(Cl)cc21 (stereo unspecified) | 120 |
| C[C@]12CC[C@@H]3c4ccc(OC(=O)N(CCCl)CCCl)cc4CC[C@H]3[C@@H]1CC[C@@H]2OP(=O)(O)O | 82.9 |
